Every entry's value here was drawn from ChEMBL document CHEMBL1145498.

The reader will find ΔTm measurements below, all made with Mitogen-activated protein kinase 6 (Homo sapiens).
QUANTITY KIND: ΔTm (°C)

>>> reported("O=c1c(-c2ccc(O)cc2)coc2cc(O)cc(O)c12")
1.7
>>> reported("NS(=O)(=O)c1ccc(Nc2nc(OCC3CCCCC3)c3nc[nH]c3n2)cc1")
1
>>> reported("CC(=O)O/N=C1/C(=C2/C(=O)Nc3cc(Br)ccc32)Nc2ccccc21 [6-BROMOINDIRUBIN-3'-ACETOXIME]")
0.3
>>> reported("Cn1cc(/C=C2/C(=O)Nc3ccc(S(N)(=O)=O)cc32)c2ccccc21")
5.5
>>> reported("Clc1ccc(Nc2nnc(Cc3ccncc3)c3ccccc23)cc1")
1.3
>>> reported("COc1nccc(-c2c(-c3ccc(F)cc3)ncn2[C@H]2CC[C@H](O)CC2)n1")
0.8
>>> reported("O=C1Cc2c([nH]c3ccc(Br)cc23)-c2ccccc2N1 [KENPAULLONE]")
0.9
>>> reported("COC(=O)[C@]1(O)C[C@@H]2O[C@@]1(C)n1c3ccccc3c3c4c(c5c6ccccc6n2c5c31)C(=O)NC4 (single isomer, unassigned)")
0.3
>>> reported("NCCNS(=O)(=O)c1cccc2c(Cl)cccc12")
0.3

* * *

SYSTEM: Calcium/calmodulin-dependent protein kinase type 1D (Homo sapiens) (UniProt Q8IU85)
Sequence (Q8IU85 whole entry, looked up): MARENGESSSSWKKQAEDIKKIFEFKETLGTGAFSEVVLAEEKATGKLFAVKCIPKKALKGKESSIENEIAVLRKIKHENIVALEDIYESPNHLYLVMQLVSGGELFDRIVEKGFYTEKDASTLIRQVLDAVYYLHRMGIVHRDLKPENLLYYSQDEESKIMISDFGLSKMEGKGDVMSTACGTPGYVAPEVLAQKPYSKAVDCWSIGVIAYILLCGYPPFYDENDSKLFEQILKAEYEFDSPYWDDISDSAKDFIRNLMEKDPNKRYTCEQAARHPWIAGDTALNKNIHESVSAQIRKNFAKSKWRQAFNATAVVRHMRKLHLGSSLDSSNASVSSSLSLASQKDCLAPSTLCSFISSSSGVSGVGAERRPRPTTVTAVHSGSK
Group membership follows ΔTm per the scheme band 1 = under 0 °C, band 2 = from 0 °C up to 2 °C, band 3 = 2 °C and over

>>> label_class("NS(=O)(=O)c1ccc(Nc2nc(OCC3CCCCC3)c3nc[nH]c3n2)cc1")
"band 2"
>>> label_class("CCOC(=O)c1cnc2oc3ccc(O)cc3c2c1-c1ccccc1")
"band 2"
>>> label_class("O=C(Nc1cccc(Nc2cc(Nc3cccc(C(F)(F)F)c3)ncn2)c1)C1CC1")
"band 3"
>>> label_class("COc1cc2ncnc(Nc3cccc(O)c3)c2cc1OC")
"band 1"
>>> label_class("Nc1nc(Nc2ccc(S(N)(=O)=O)cc2)nn1C(=S)Nc1c(F)cccc1F")
"band 3"
>>> label_class("O=C1C=C2C(=Nc3c2c2c(c4c3=NC3=C4CCC=C3)C=NC=2)CC1")
"band 3"
>>> label_class("N#C/C(=C1/Nc2ccccc2S1)c1ccnc(NCCc2cccnc2)n1")
"band 2"
>>> label_class("CN(C)S(=O)(=O)c1ccc2c(c1)/C(=C/c1cc3c([nH]1)CCCC3)C(=O)N2")
"band 2"
>>> label_class("CC(C)(C)n1nc(-c2ccc(Cl)cc2)c2c(N)ncnc21")
"band 1"
>>> label_class("COC(=O)[C@]1(O)C[C@@H]2O[C@@]1(C)n1c3ccccc3c3c4c(c5c6ccccc6n2c5c31)C(=O)NC4 (single isomer, unassigned)")
"band 3"

* * *

SYSTEM: Serine/threonine-protein kinase 26 (Homo sapiens)
Group membership follows ΔTm per the scheme LOW (below 0.1 °C), MEDIUM (0.1 °C to below 1 °C), HIGH (1 °C or more)

>>> label_class("CC(C)N(CCO)c1nc(Nc2cccc(Cl)c2)c2ncn(C(C)C)c2n1")
"MEDIUM"
>>> label_class("Nc1nccc(-c2c(-c3ccc(F)cc3)ncn2C2CCNCC2)n1")
"HIGH"
>>> label_class("COc1cc(C[C@H]2C(=O)OC[C@@H]2Cc2ccc(OC)c(OC)c2)ccc1O")
"MEDIUM"
>>> label_class("C[S+]([O-])c1ccc(CSc2nc(-c3ccc(F)cc3)c(-c3ccncc3)[nH]2)cc1 (stereo not given)")
"LOW"
>>> label_class("NC(=O)c1ccc(-c2nc(-c3ccc4c(c3)OCCO4)c(-c3ccccn3)[nH]2)cc1")
"LOW"
>>> label_class("O=C1Nc2ccccc2/C1=C1/Nc2ccccc2/C1=N\\O")
"HIGH"
>>> label_class("Cl.Cn1cc(C2=C(c3ccc4cc5n(c4c3)CCC(CN)C5)C(=O)NC2=O)c2ccccc21 (stereo not given)")
"MEDIUM"
>>> label_class("COc1cc2ncnc(Nc3cccc(Br)c3)c2cc1OC")
"MEDIUM"
>>> label_class("CCOc1cc2ncnc(Nc3cccc(Br)c3)c2cc1OCC")
"MEDIUM"
>>> label_class("CCCCc1c(-c2ccc(O)cc2)[nH]c2nccnc12")
"HIGH"
>>> label_class("O=C1C(Cl)=C(N2C(=O)CCC2=O)C(=O)c2ccccc21")
"LOW"
>>> label_class("COc1ccc2c(c1)/C(=C/c1cnc[nH]1)C(=O)N2")
"HIGH"
>>> label_class("COC(=O)[C@]1(O)C[C@@H]2O[C@@]1(C)n1c3ccccc3c3c4c(c5c6ccccc6n2c5c31)C(=O)NC4 (single isomer, unassigned)")
"HIGH"
>>> label_class("O=C1c2ccccc2-c2n[nH]c3cccc1c23")
"HIGH"
>>> label_class("C[C@@H](N)[C@H]1CC[C@H](C(=O)Nc2ccncc2)CC1")
"MEDIUM"
>>> label_class("O=[N+]([O-])c1ccc(-c2nc(-c3ccc(F)cc3)c(-c3ccncc3)[nH]2)cc1")
"LOW"
>>> label_class("COc1ccc2c(c[n+](C)c3c4cc5c(cc4ccc23)OCO5)c1OC [CHELERYTHRINE CHLORIDE]")
"LOW"

* * *

The reader will find ΔTm measurements below, all made with Calcium/calmodulin-dependent protein kinase type II subunit gamma (Homo sapiens).
QUANTITY KIND: ΔTm (°C)

>>> reported("COc1ccc(COc2ccc(Cc3cnc(N)nc3N)cc2OC)cc1")
0.2
>>> reported("CCOC(=O)c1cnc2oc3ccc(O)cc3c2c1-c1ccccc1")
0.5
>>> reported("Ic1cccc(CSc2nnc(-c3ccncc3)o2)c1")
-0.1
>>> reported("N=C(N)NCCNS(=O)(=O)c1cccc2cnccc12")
0
>>> reported("O=C1NC(=O)C(c2cn(CCCn3ccnc3)c3ccccc23)=C1Nc1ccccc1")
0.9
>>> reported("Cc1cc(Nc2nc(-c3ccccc3)nc3ccccc23)n[nH]1")
1.9
>>> reported("Cc1ccc(NC(=O)c2ccc(CN3CCN(C)CC3)cc2)cc1Nc1nccc(-c2cccnc2)n1")
0.8
>>> reported("Nc1nc(Nc2ccc(S(N)(=O)=O)cc2)nn1C(=S)Nc1c(F)cccc1F")
4.2
>>> reported("CN(c1cccnc1)c1cc2c(Nc3ccc(F)c(Cl)c3)c(C#N)cnc2cn1")
1.9
>>> reported("CCOC(=O)c1c(C)[nH]c(/C=C2\\C(=O)Nc3ccccc32)c1C")
-0.1
>>> reported("CC(C)n1cnc2c(NCc3ccccc3O)nc(NCCCO)nc21")
0.1
>>> reported("O=c1c(-c2ccc(F)cc2)c(-c2ccncc2)[nH]n1-c1ccc(Cl)cc1")
0
>>> reported("Cc1nc2sccn2c(=O)c1CCN1CCC(=C(c2ccccc2)c2ccc(F)cc2)CC1")
1.1
>>> reported("C[C@@H]1C[C@H]2O[C@@H]2/C=C\\C=C\\C(=O)Cc2c(Cl)c(O)cc(O)c2C(=O)O1")
0
>>> reported("CC(C)[C@H](CO)Nc1nc(Nc2cc(N)cc(Cl)c2)c2ncn(C(C)C)c2n1")
1.3
>>> reported("Cn1cnc2c(NCc3ccccc3)nc(NCCO)nc21")
0.1
>>> reported("CN(C)CC1CCn2c(c(C3=C(c4c[nH]c5ccccc45)C(=O)NC3=O)c3ccccc32)C1 (configuration not stated)")
1.3
>>> reported("O=C1Nc2ccc(I)cc2/C1=C\\c1cc(Br)c(O)c(Br)c1")
-0.3
>>> reported("O=C1Nc2ccccc2/C1=C1/Nc2ccccc2/C1=N\\O")
5.3
>>> reported("NCCNc1ncc(C(N)=O)c(Nc2cccc(C(F)(F)F)c2)n1")
1.1
>>> reported("O=c1c(-c2ccc(O)cc2)coc2cc(O)cc(O)c12")
0
>>> reported("O=c1cc(-c2ccc(O)cc2)oc2cc(O)cc(O)c12")
-11.5
>>> reported("Cc1cncc2cccc(S(=O)(=O)N3CCCNC[C@@H]3C)c12")
2.9
>>> reported("COc1cccc(-c2cc(=O)c3ccccc3o2)c1N")
0.1
>>> reported("O=C(O)c1cc(N(Cc2ccccc2O)Cc2cc(O)ccc2O)ccc1O")
-0.1
>>> reported("Oc1cccc(-c2nc(N3CCOCC3)c3oc4ncccc4c3n2)c1")
0.1
>>> reported("Nc1n[nH]c2nnc(-c3c(-c4ccccc4)nn4ccccc34)cc12")
-0.1
>>> reported("Cc1cc2ncc(-c3ccccc3)nc2cc1C")
0.4
>>> reported("Cl.Cn1cc(C2=C(c3ccc4cc5n(c4c3)CCC(CN)C5)C(=O)NC2=O)c2ccccc21 (configuration not stated)")
1.1
>>> reported("NC1=N/C(=C2/CCNC(=O)c3[nH]ccc32)C(=O)N1")
0.3
>>> reported("COc1ccc(CNC(=O)Nc2ncc([N+](=O)[O-])s2)cc1")
-0.2
>>> reported("O=S(=O)(NCCNC/C=C/c1ccc(Br)cc1)c1cccc2cnccc12")
0
>>> reported("O=C1Nc2ccccc2/C1=C/c1cnc[nH]1")
1.2
>>> reported("O=c1c(O)c(-c2ccc(O)c(O)c2)oc2cc(O)cc(O)c12")
4.9
>>> reported("C[S+]([O-])c1ccc(CSc2nc(-c3ccc(F)cc3)c(-c3ccncc3)[nH]2)cc1 (configuration not stated)")
-0.1
>>> reported("Nc1n[nH]c2nc3ccccc3nc12")
0.4
>>> reported("CN1CCc2[nH]c(=S)c(C#N)c(-c3cccs3)c2C1")
1
>>> reported("Nc1nccc(-c2c(-c3ccc(F)cc3)ncn2C2CCNCC2)n1")
0.1
>>> reported("O=S(=O)(c1cccc2c(Cl)cccc12)N1CCCNCC1")
0.3
>>> reported("CN[C@@H]1CC2O[C@@](C)([C@@H]1OC)n1c3ccccc3c3c4c(c5c6ccccc6n2c5c31)C(=O)NC4")
14.6
>>> reported("COC(=O)[C@]1(O)C[C@@H]2O[C@@]1(C)n1c3ccccc3c3c4c(c5c6ccccc6n2c5c31)C(=O)NC4 (single isomer, unassigned)")
6.5
>>> reported("C=CNC#N")
0.5
